These measurements were taken from paper PMC3411462.

Attribute: Tmax
procedure text: Brain and plasma concentrations in mice after intraperitoneal administration (LC-MS-MS), non-compartmental analysis
Type: in vivo
condition set: male, Swiss-Webster, mouse, ip; brain NCA, 10 mg/kg i.p.

[
  {
    "smiles structure": "CC(C)[C@@H](CN1CC[C@@](C)(c2cccc(O)c2)[C@@H](C)C1)NC(=O)[C@H]1Cc2ccc(O)cc2CN1",
    "value unit": "min",
    "Tmax": 30
  },
  {
    "smiles structure": "Oc1ccc2c3c1O[C@H]1c4[nH]c5c(c4C[C@@]4(O)[C@@H](C2)N(CC2CC2)CC[C@]314)C[C@@]1(O)[C@H]2Cc3ccc(O)c4c3[C@@]1(CCN2CC1CC1)[C@H]5O4",
    "value unit": "min",
    "Tmax": 30
  }
]
